Reported values of IC50 for individual entries
Target: rat PepT2 (Rattus norvegicus)
Construct: His-tagged GFP (C, cleaved yes); made in house; host or cells: HEK293F cells
Experiment: Inhibition of uptake of radioactive di-alanine peptide into PepT2 proteoliposomes (IC50)
Format: biochemical
Conditions: IC50, rat PepT2 in liposomes, inhibition of 3H di-alanine uptake, 4 minutes, mean of n = 3 (SD)
PROPERTY_NAME: IC50 (µM)

Cc1onc(-c2ccccc2Cl)c1C(=O)N[C@@H]1C(=O)N2[C@@H]1SC(C)(C)[C@@H]2C(=O)O: 203
CC1(C)S[C@@H]2[C@H](NC(=O)[C@H](N)c3ccccc3)C(=O)N2[C@H]1C(=O)O: 750

---

Reported values of pIC50 for individual entries
Molecular target: rat PepT2 (Rattus norvegicus, UniProt Q63424)
Construct: His-tagged GFP (C, cleaved yes); made in house; host or cells: HEK293F cells
Sequence (Q63424 1-729): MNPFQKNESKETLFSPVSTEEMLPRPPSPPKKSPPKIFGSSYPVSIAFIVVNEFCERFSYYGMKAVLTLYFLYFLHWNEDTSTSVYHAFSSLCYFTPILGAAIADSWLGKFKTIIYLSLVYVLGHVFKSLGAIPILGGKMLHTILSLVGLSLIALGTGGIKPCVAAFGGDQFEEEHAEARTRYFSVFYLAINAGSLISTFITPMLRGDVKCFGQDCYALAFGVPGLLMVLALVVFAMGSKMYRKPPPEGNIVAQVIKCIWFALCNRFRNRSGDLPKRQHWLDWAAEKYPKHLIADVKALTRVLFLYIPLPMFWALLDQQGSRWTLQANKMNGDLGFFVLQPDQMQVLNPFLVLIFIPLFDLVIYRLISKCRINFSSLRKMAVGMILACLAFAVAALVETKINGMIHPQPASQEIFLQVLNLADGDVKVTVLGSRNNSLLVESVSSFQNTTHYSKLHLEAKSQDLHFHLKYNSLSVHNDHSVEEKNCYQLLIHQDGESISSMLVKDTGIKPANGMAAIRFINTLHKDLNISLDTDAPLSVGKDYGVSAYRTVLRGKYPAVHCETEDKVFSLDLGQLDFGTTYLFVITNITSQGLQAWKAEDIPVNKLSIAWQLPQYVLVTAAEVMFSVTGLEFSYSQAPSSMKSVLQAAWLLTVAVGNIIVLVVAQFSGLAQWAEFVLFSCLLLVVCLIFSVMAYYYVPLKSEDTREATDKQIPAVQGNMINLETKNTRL
Assay: Inhibition of uptake of radioactive di-alanine peptide into PepT2 proteoliposomes (IC50)
Format: biochemical
Conditions: rat PepT2 in liposomes, inhibition of 3H di-alanine uptake, 4 minutes, mean of n = 3 (SD); read-out: IC50
pIC50: −log10 of the molar value. Where a SMILES comes first, the peptide text is derived from it.
PROPERTY_NAME: pIC50

CO[C@@]1(NC(=O)C(C(=O)O)c2ccc(O)cc2)C(=O)N2C(C(=O)O)=C(CSc3nnnn3C)CO[C@@H]21 (stereo partly shown): 3.30
CC1(C)S[C@@H]2[C@H](NC(=O)[C@H](N)c3ccc(O)cc3)C(=O)N2[C@H]1C(=O)O: 3.57
CC1=C(C(=O)O)N2C(=O)[C@@H](NC(=O)[C@H](N)c3ccc(O)cc3)[C@H]2SC1: 4.72
C[C@H](N)C(=O)N[C@@H](C)C(=O)O [di-alanine, L-Ala-L-Ala] (H-Ala-Ala-OH): 4.49
